Source: PubChem BioAssay (Tox21)

test: qHTS RealTime-Glo MT Cell Viability Assay in HEK293 cells - 40 hour (AID 1224874); conditions: RealTime-Glo luminescence; further: potency means the concentration at half of the fitted maximal effect; nearly all actives have a fitted effect of over 50% in size
Inconclusive results are not listed. Calls of active or inactive are those of the source. The call rests on the fitted dose curve; in most records, active means well fitted cell-killing curve with a large enough effect in the repeat runs; inconclusive means weak or mixed curves, or effect the other way; inactive means flat fitted curve, though single readings scatter.
measurement.name: Potency

compound="CC(CN(CCN(CC(C)OCCO)CC(C)OCCO)CC(C)OCCO)OCCO (centres undefined)" result="23.7 µM (active)"
compound=COc1cc(C(C)=O)ccc1OCCCN1CCC(c2noc3cc(F)ccc23)CC1 result="10.7 µM (active)"
compound="CNS(=O)(=O)c1cc(C(=O)N2CCC(CCN3C4CCC3CC(n3c(C)nc5ccccc53)C4)(c3cccc(F)c3)CC2)c(Cl)cc1F (centres undefined)" result="4.36 µM (active)"
compound="CO[C@@H]1[C@@H](OC)[C@H](C)[C@@](O)(CC(=O)O)O[C@H]1[C@H](C)[C@H]1O[C@@]2(CC[C@@](C)([C@H]3CC[C@@](C)([C@@H]4O[C@@H]([C@H]5O[C@](C)(O)[C@H](C)C[C@@H]5C)C[C@@H]4OC4C[C@H](OC)[C@@H](OC)[C@H](C)O4)O3)O2)C[C@H](O)[C@H]1C (some centres undefined)" result="2.39 µM (active)"
compound=CCCCCCCC(=O)OCCCCCC result="3.47 µM (active)"
compound=CN(C)CC/C=C1\c2ccccc2Sc2ccc(Cl)cc21 result="23.9 µM (active)"
compound="CC(C)C(O)C(C)(C)CO (centres undefined)" result="0.899 µM (active)"
compound=Cc1ccc2c(c1[N+](=O)[O-])C(=O)c1ccccc1C2=O result="0.958 µM (active)"
compound=O=[N+]([O-])C1(Br)COCOC1 result="34.7 µM (active)"

----------
target: Vitamin D3 receptor (Homo sapiens); experiment: qHTS assay to identify small molecule agonists of the vitamin D receptor (VDR) signaling pathway (AID 743222); conditions: HEK293T VDR-UAS-bla, beta-lactamase FRET ratio, 16 h; series mostly up to 63.5 µM
Records with an inconclusive call do not appear. The source made the active and inactive calls. The call rests on the fitted dose curve.
measurement.name: outcome

compound="c1ccc(CNc2ncnc3c2ncn3C2CCCCO2)cc1 (stereo not drawn)" measurement_name=outcome result=inactive
compound=Cc1ccc(Cl)cc1N measurement_name=outcome result=inactive
compound=Cc1ccc(N(CCO)CCO)cc1 measurement_name=outcome result=inactive
compound="C1=CCC2CC=CC2C1 (stereo not drawn)" measurement_name=outcome result=inactive
compound=CC(C)(C)CCCCCCOC(=O)c1ccccc1C(=O)OCCCCCCC(C)(C)C measurement_name=outcome result=inactive
compound=CC(C)c1ccc(C(=O)N=C(N)N)cc1S(C)(=O)=O measurement_name=outcome result=inactive
compound=O=C(O)CO measurement_name=outcome result=inactive
compound=CCN(Cc1cccc(S(=O)(=O)O)c1)c1ccc(C(=C2C=CC(=[N+](CC)Cc3cccc(S(=O)(=O)O)c3)C=C2)c2ccccc2S(=O)(=O)[O-])cc1 measurement_name=outcome result=inactive
compound=COC(=O)c1sccc1S(N)(=O)=O measurement_name=outcome result=inactive
compound=CCCCOC(=O)CCCCC(=O)OCCCC measurement_name=outcome result=inactive
compound=CCC(C)(C)C(=O)O measurement_name=outcome result=inactive
compound=CC(C)COC(=O)c1ccc(O)cc1 measurement_name=outcome result=inactive
compound=CC(C)OC(=O)c1ccccc1C(=O)OC(C)C measurement_name=outcome result=inactive
